# Lookup of reported log10(IC50) keyed by entry
# targetUnderTest: Human recombinant PDE10A (hPDE10A) (Homo sapiens, UniProt Q9Y233)
# Construct: His tag (inferred from metal chelate purification); made in house; host or cells: Sf9 insect cells (baculovirus)
# Sequence (Q9Y233 267-1055): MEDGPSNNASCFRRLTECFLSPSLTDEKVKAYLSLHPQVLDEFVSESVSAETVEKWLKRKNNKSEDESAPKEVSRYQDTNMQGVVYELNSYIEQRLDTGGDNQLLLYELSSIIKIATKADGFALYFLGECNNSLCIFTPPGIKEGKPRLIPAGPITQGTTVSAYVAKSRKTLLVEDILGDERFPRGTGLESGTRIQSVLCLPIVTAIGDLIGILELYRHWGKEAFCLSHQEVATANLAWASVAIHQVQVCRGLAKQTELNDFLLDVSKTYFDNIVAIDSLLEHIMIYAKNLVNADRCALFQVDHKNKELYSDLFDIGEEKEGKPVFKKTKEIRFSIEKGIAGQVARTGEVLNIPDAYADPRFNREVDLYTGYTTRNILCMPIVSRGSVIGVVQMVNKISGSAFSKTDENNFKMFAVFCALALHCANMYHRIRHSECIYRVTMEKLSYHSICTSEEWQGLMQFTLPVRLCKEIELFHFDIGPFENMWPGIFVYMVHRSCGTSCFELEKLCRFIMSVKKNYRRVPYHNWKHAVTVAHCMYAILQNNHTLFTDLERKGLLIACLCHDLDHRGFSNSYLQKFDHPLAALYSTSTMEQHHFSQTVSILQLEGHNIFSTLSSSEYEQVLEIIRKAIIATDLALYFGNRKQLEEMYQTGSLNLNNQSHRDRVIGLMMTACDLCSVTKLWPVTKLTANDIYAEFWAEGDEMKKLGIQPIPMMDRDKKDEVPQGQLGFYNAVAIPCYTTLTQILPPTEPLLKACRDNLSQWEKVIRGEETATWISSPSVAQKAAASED
# protocolDetails: In vitro assay PDE10A, human clone (SPA, 3H-cAMP hydrolysis)
# Type: biochemical
# conditionLabel: human clone (h), default; read-out: hPDE10A2 pIC50 (converted)
Give log10 of IC50, with IC50 taken in nM.

Q. Give the reported log10(IC50) for "Cc1c(C(=O)N2CC[C@@H](C)[C@H](c3cc(C(F)F)nc4ncnn34)C2)ccc2c1OCO2" (system: Human recombinant PDE10A (hPDE10A) (Homo sapiens, UniProt Q9Y233)).
A. 2.81

Q. Give the reported log10(IC50) for "COc1cc(C(=O)N2CC[C@@H](C)[C@H](c3cc(C(F)F)nc4ncnn34)C2)c(C)cn1" (system: Human recombinant PDE10A (hPDE10A) (Homo sapiens, UniProt Q9Y233)).
A. 2.89

Q. Give the reported log10(IC50) for "Cc1cc(C(=O)N2CC[C@@H](C)[C@H](c3cc(C(F)F)nc4ncnn34)C2)cc(C)c1Cl" (system: Human recombinant PDE10A (hPDE10A) (Homo sapiens, UniProt Q9Y233)).
A. 1.50

Q. Give the reported log10(IC50) for "COc1cc(C(=O)N2CC[C@@H](C)[C@H](c3cc(C(F)F)nc4ncnn34)C2)ccc1C1CC1" (system: Human recombinant PDE10A (hPDE10A) (Homo sapiens, UniProt Q9Y233)).
A. 1.87

Others:
Q. Give the reported log10(IC50) for "C[C@@H]1CCN(C(=O)c2cc3n(n2)CCO3)C[C@H]1c1cc(C(F)F)nc2ncnn12" (system: Human recombinant PDE10A (hPDE10A) (Homo sapiens, UniProt Q9Y233)).
A. 3.35
